Where these numbers come from: patent US11844813

Here, each record is paired with measured pKd data.
- system: Human His-tagged RBP4 (residues 19-201), soluble (human, UniProt P02753 19-201)
- experimental.details: yeast surface display, flow cytometry: soluble His-tagged RBP4 titrated on yeast displaying the binder, anti-penta-His detection, with 5 µM A1120; mean of three
Note on units: pKd is unitless, being -log10 of a concentration expressed in mol/L.

Solved entries (count: 2):
binder	quantitative.readout
RF3, FN3-based lipocalin-fold binding interaction partner, displayed on the surface of yeast (designed binder, not shown: Yeast-display carrier of the pCTCON2 construct (Aga2p anchor, HA tag, linker, c-myc tag)) VSDVPRDLEVVAATPTSLLISWYYPNASHAGYYRITYGETGGNSPVQEFTVPFSIRYTIATISGLKPGVDYTITVYAVTASCQYCSYPISINYRTEIDKPSQ	7.17
RF2, FN3-based lipocalin-fold binding interaction partner, displayed on the surface of yeast (designed binder, not shown: Yeast-display carrier of the pCTCON2 construct (Aga2p anchor, HA tag, linker, c-myc tag)) VSDVPRDLEVVAATPTSLLISWYYPNASHAGYYRITYGETGGNSPVQEFTVPFSIRYTIATISGLKPGVDYTITVYAVTDYAYYYRLSEPISINYRTEIDKPSQ	7.38

Now turn to the next binder.
For record RS5, rcSso7d-based lipocalin-fold binding interaction partner, displayed on the surface of yeast (designed binder, not shown: Yeast-display carrier of the pCTCON2 construct (Aga2p anchor, HA tag, linker, c-myc tag)) ATVKFTYQGEEKQVDISKIKRVARYGQGIYFDYGEGGGAWGYGSVSEEDAPKELLQMLEKQ the listed pKd is 7.16
